Data origin, for the record: patent US4278676A

Method description: Acute toxicity (mice)
Settings: mouse, in vivo, ip, read-out: Acute Toxicity (Mice) LD50 i.p.
Measurement kind: LD50 (mg/kg)
Supply the numeric figure in mg/kg, leaving out any unit text.

Suppose we examine the compound `NCc1cc(=O)[nH]o1` ; what LD50 value has been reported?
12
